- Tested on: Bacillus subtilis
- assay: Antibacterial activity against Bacillus subtilis after 18 hrs by broth dilution method
- Format: functional
The label fulfilled is reserved for MIC strictly under 100 µg/mL; not fulfilled covers values equal to or above it.

# structureString, class
records = [
    ("NC[C@H]1O[C@H](O[C@H]2[C@H](O)[C@@H](O[C@H]3O[C@H](CO)[C@@H](O)[C@H](N)[C@H]3O)[C@H](N)C[C@@H]2N)[C@H](O)[C@@H](O)[C@@H]1O", "fulfilled"),
    ("Cc1ccc2c(c1)cc(/C=C1\\SC(=S)NC1=O)c1nnnn12", "not fulfilled"),
    ("COc1ccc2c(c1)cc(/C=C1\\SC(=S)NC1=O)c1nnnn12", "fulfilled"),
    ("Cc1cccc2cc(/C=C3\\SC(=S)N(CC(=O)O)C3=O)c3nnnn3c12", "not fulfilled"),
    ("CC1(C)S[C@@H]2[C@H](NC(=O)[C@H](N)c3ccccc3)C(=O)N2[C@H]1C(=O)O", "fulfilled"),
    ("Cc1ccc2cc(/C=C3\\SC(=S)NC3=O)c3nnnn3c2c1", "not fulfilled"),
    ("O=C1NC(=S)S/C1=C\\c1cc2ccccc2n2nnnc12", "not fulfilled"),
    ("Cc1cccc2cc(/C=C3\\SC(=S)NC3=O)c3nnnn3c12", "fulfilled"),
    ("O=C(O)CN1C(=O)/C(=C/c2cc3ccccc3n3nnnc23)SC1=S", "not fulfilled"),
    ("COc1ccc2cc(/C=C3\\SC(=S)NC3=O)c3nnnn3c2c1", "not fulfilled"),
]

src = ChEMBL document CHEMBL3792317
